Just for reference, paper PMC11510591 is where these values come from.

Test: Stability in acidic medium (0.01 M HCl)
Assay type: physicochemical
Settings: 0.01 M HCl pH 2, 2 h
Marks after values point to notes of the source that are not given here.
Would you mind telling me the reported The Decrease in Peak Area (%) of each entry?

Data request, read-out The Decrease in Peak Area (%), for CC(=O)N(O)C(C)c1ccc(CC(C)C)cc1 (stereo not shown) 1.63 (p = 0.073) %

Recorded The Decrease in Peak Area (%) of COc1ccc2c(c1)c(CNC(=O)NO)c(C)n2C(=O)c1ccc(Cl)cc1 , please. 0.07 (p = 0.2839) ^a %

Could you share which The Decrease in Peak Area (%) value was measured for CC(NC(=O)NO)c1ccc(-c2ccccc2)c(F)c1 (stereo not shown) ? 0.34 (p = 0.4501) %

Please look up its The Decrease in Peak Area (%): COc1ccc2cc(C(C)N(O)C(C)=O)ccc2c1 (stereo not shown) 0.24 (p = 0.4399) %
